- Test system: PC-3
- experiment_notes: Antiproliferative activity against human PC3 cells assessed as reduction in cell viability after 24 hrs by MTT assay
- Type: functional, cell-based
- condition_label: PC-3, 24 h
pIC50: −log10 of the molar value.
Recorded pIC50 by entry

- cpd_smiles: "CC(=O)c1ccc(-n2cc(CO[C@H]3O[C@@H]4O[C@@]5(C)CC[C@H]6[C@H](C)CC[C@@H]([C@H]3C)[C@@]46OO5)nn2)cc1"
  tgt: "PC-3"
  pIC50: "4.05 to 5.39"
- cpd_smiles: "CC(=O)c1ccccc1-n1cc(CO[C@H]2O[C@@H]3O[C@@]4(C)O[C@]35[C@@H](CC[C@@H](C)[C@@H]5C[C@H]4O)[C@H]2C)nn1"
  tgt: "PC-3"
  pIC50: "4.05 to 5.39"
- cpd_smiles: "CC(=O)c1ccccc1-n1cc(CO[C@H]2O[C@@H]3O[C@@]4(C)CC[C@H]5[C@H](C)CC[C@@H]([C@H]2C)[C@@]35OO4)nn1"
  tgt: "PC-3"
  pIC50: "4.05 to 5.39"

* * *

- Test system: A549/TR
- experiment_notes: Antiproliferative activity against human A549/TR cells assessed as reduction in cell viability after 72 hrs by MTT assay
- Assay type: functional, cell-based
pIC50: −log10 of the molar value.
recorded_endpoint: pIC50

- compound: "CC(C)=CCC12OC(C)(C)C3CC(C=C4C(=O)c5c(OCc6cn(CCN7CCOCC7)nn6)cccc5OC431)C2=O (configuration not stated)"
  experimental_result: "5.43 to 6.51"
- compound: "CC(C)=CCC[C@]1(C)C=Cc2c(O)c3c(c(CC=C(C)C)c2O1)O[C@]12C(=C[C@@H]4C[C@H]1C(C)(C)O[C@@]2(C/C=C(/C)C(=O)O)C4=O)C3=O"
  experimental_result: "5.33 to 6.54"

* * *

- Tested on: MDA-MB-231
- experiment_notes: Antiproliferative activity against human MDA-MB-231 cells assessed as reduction in cell viability after 72 hrs by MTT assay
- Format: functional, cell-based
- condition_label: MDA-MB-231, 72 h, read-out: IC50

- cpd_smiles: "CC(C)(C)c1ccc(-c2cn([C@H]3C[C@H]4[C@@H]5CCc6cc(OCc7ccccc7)ccc6[C@H]5CC[C@@]4(C)[C@@H]3O)nn2)cc1"
  tgt: "MDA-MB-231"
  IC50: "2.4 to 8.3 µM"
- cpd_smiles: "O=c1[nH]cc(F)c(=O)[nH]1"
  tgt: "MDA-MB-231"
  IC50: "7.5 to 12.7 µM"
- cpd_smiles: "CCc1ccc(-c2cn([C@H]3C[C@H]4[C@@H]5CCc6cc(OCc7ccccc7)ccc6[C@H]5CC[C@@]4(C)[C@@H]3O)nn2)cc1"
  tgt: "MDA-MB-231"
  IC50: "2.4 to 8.3 µM"
- cpd_smiles: "Cc1n[nH]c(=O)c2c1c1cc(F)ccc1n2Cc1cn(Cc2ccc(F)cc2)nn1"
  tgt: "MDA-MB-231"
  IC50: "0.042 to 0.478 µM"
- cpd_smiles: "COc1cc(Cn2cc(CN3c4ccccc4Sc4ccccc43)nn2)cc(OC)c1OC"
  tgt: "MDA-MB-231"
  IC50: "0.8 to 1.7 µM"
- cpd_smiles: "Cc1n[nH]c(=O)c2c1c1cc(F)ccc1n2Cc1cn(C2CCCCC2)nn1"
  tgt: "MDA-MB-231"
  IC50: "0.042 to 0.478 µM"
